experiment: in vivo; details: female, WAG/RijCmcr, rat, plasma, urine, Model-based estimate of terminal half-life, irradiated rats
Observation type: half-life (days)
Give your result in days as a bare value.

Incoming: Which half-life is reported for this molecule? NCCCC[C@H](N[C@@H](CCc1ccccc1)C(=O)O)C(=O)N1CCC[C@H]1C(=O)O [lisinopril]
Outgoing: 3.46

###

experiment: in vivo; settings: female, WAG/RijCmcr, rat, plasma, urine, Model-based circulating half-life, irradiated rats
Observation type: half-life (h)
Give your result in h as a bare value.

Incoming: Which half-life is reported for this compound? NCCCC[C@H](N[C@@H](CCc1ccccc1)C(=O)O)C(=O)N1CCC[C@H]1C(=O)O
Outgoing: 2.5
